Overview of reported herbicidal effect (herbicidal rate), Amaranthus viridis across a group of molecules:
- Tested on: Amaranthus viridis
- Measurement notes: Test Example 4: herbicidal effect test by treatment of leave and stem in dry field farming (seven days after seeding)
- Assay type: in vivo
- Reported conditions: 120 g/10a active ingredient; emulsion sprayed seven days after seeding; evaluated 14 days after treatment
Measurement type: herbicidal effect (herbicidal rate), Amaranthus viridis (%)

{"Molecule": "CCCC(c1ccccc1)n1oc(=O)c(Cc2ccccc2NS(=O)(=O)C(F)(F)F)c1C (stereo not drawn) [Compound 1-212]", "Target system": "Amaranthus viridis", "Meas value": 80}
{"Molecule": "CCC(=O)N(c1ccccc1Cc1c(C)n(C(C)COC)oc1=O)S(=O)(=O)C(F)(F)F (stereo not drawn) [Compound 1-319]", "Target system": "Amaranthus viridis", "Meas value": 40}
{"Molecule": "Cc1c(Cc2ccccc2NS(=O)(=O)C(F)(F)F)c(=O)on1C [Compound 1-97]", "Target system": "Amaranthus viridis", "Meas value": 40}
{"Molecule": "C=CCOC(=O)N(c1ccccc1Cc1c(C)n(CCSC)oc1=O)S(=O)(=O)C(F)(F)F [Compound 1-709]", "Target system": "Amaranthus viridis", "Meas value": 40}
{"Molecule": "Cc1c(Cc2ccccc2N(S(=O)(=O)C(F)(F)F)S(=O)(=O)C(F)(F)F)c(=O)on1C(C)c1ccccc1 (stereo not drawn) [Compound 1-1030]", "Target system": "Amaranthus viridis", "Meas value": 40}
{"Molecule": "CCC(C)n1oc(=O)c(Cc2ccccc2N(C(=O)OCC(C)C)S(=O)(=O)C(F)(F)F)c1C (stereo not drawn) [Compound 1-669]", "Target system": "Amaranthus viridis", "Meas value": 40}
{"Molecule": "Cc1ccc(C(C)n2oc(=O)c(Cc3ccccc3NS(=O)(=O)C(F)(F)F)c2C)cc1 (stereo not drawn) [Compound 1-208]", "Target system": "Amaranthus viridis", "Meas value": 40}
{"Molecule": "COC(=O)N(c1ccccc1Cc1c(C)n(C(C)(C)C)oc1=O)S(=O)(=O)C(F)(F)F [Compound 1-576]", "Target system": "Amaranthus viridis", "Meas value": 40}
{"Molecule": "CCC(C)n1oc(=O)c(Cc2ccccc2N(C(=O)C2CC2)S(=O)(=O)C(F)(F)F)c1C (stereo not drawn) [Compound 1-404]", "Target system": "Amaranthus viridis", "Meas value": 40}
{"Molecule": "CCC(CC)n1oc(=O)c(Cc2ccccc2N(C(=O)C(C)C)S(=O)(=O)C(F)(F)F)c1C [Compound 1-331]", "Target system": "Amaranthus viridis", "Meas value": 40}
{"Molecule": "CCS(=O)(=O)N(c1ccccc1Cc1c(C)n(C(C)COC)oc1=O)S(=O)(=O)C(F)(F)F (stereo not drawn) [Compound 1-915]", "Target system": "Amaranthus viridis", "Meas value": 40}
{"Molecule": "Cc1c(Cc2ccccc2N(S(C)(=O)=O)S(=O)(=O)C(F)(F)F)c(=O)on1Cc1ccc(F)cc1 [Compound 1-906]", "Target system": "Amaranthus viridis", "Meas value": 100}
{"Molecule": "CCC(=O)N(c1ccccc1Cc1c(C)n(C(C)c2ccccc2)oc1=O)S(=O)(=O)C(F)(F)F (stereo not drawn) [Compound 1-321]", "Target system": "Amaranthus viridis", "Meas value": 40}
{"Molecule": "Cc1c(Cc2ccccc2N(C(=O)CC(C)C)S(=O)(=O)C(F)(F)F)c(=O)on1C(C)(C)C [Compound 1-351]", "Target system": "Amaranthus viridis", "Meas value": 40}
{"Molecule": "Cc1c(Cc2ccccc2N(C(=O)Oc2ccccc2)S(=O)(=O)C(F)(F)F)c(=O)on1C(C)c1ccccc1 (stereo not drawn) [Compound 1-766]", "Target system": "Amaranthus viridis", "Meas value": 40}

Data origin, for the record: patent US11109593B2
